measurement.context: GHI-H (GHI 10 mL/kg, i.v.), MI/R rats, plasma, n = 6
measurement.name: K21 (h⁻¹)

Some entries whose results are on file:
compound	scale.unit	K21
C[C@@H]1O[C@@H](OC[C@H]2O[C@@H](Oc3c(-c4ccc(O)c(O)c4)oc4cc(O)cc(O)c4c3=O)[C@H](O)[C@@H](O)[C@@H]2O)[C@H](O)[C@H](O)[C@H]1O	h⁻¹	7.333
O=C(/C=C/c1ccc(O)c(O)c1)O[C@@H]1C[C@](O)(C(=O)O)C[C@@H](O)[C@H]1O	h⁻¹	8.203
O=c1c(O[C@@H]2O[C@H](CO)[C@@H](O)[C@H](O)[C@H]2O)c(-c2ccc(O)cc2)oc2cc(O)cc(O)c12 [Kaempferol-3-O-glucoside, kaempferol-3-O-glucoside]	h⁻¹	6.02

A. O=C(O)/C=C/c1ccc(O)cc1
B. O=c1c(O[C@@H]2O[C@H](CO)[C@H](O)[C@H](O)[C@H]2O)c(-c2ccc(O)c(O)c2)oc2cc(O)cc(O)c12 [Hyperoside, hyperoside]
Enquiry: Between A and B , which one shows the larger K21 value? Your choice should be expressed through its label.
Return: A
(A: 10.071 h⁻¹, B: 6.031 h⁻¹)

###

measurement.context: GHI-H (GHI 10 mL/kg, i.v.), MI/R rats, plasma, n = 6
measurement.name: CL1 (mL/min/kg)

compound	scale.unit	measured.result
O=C(O)/C=C/c1ccc(O)cc1	mL/min/kg	57.82
O=C(/C=C/c1ccc(O)c(O)c1)O[C@@H]1C[C@](O)(C(=O)O)C[C@@H](O)[C@H]1O	mL/min/kg	42.57

a. C[C@@H]1O[C@@H](OC[C@H]2O[C@@H](Oc3c(-c4ccc(O)c(O)c4)oc4cc(O)cc(O)c4c3=O)[C@H](O)[C@@H](O)[C@@H]2O)[C@H](O)[C@H](O)[C@H]1O
b. O=c1c(O[C@@H]2O[C@H](CO)[C@H](O)[C@H](O)[C@H]2O)c(-c2ccc(O)c(O)c2)oc2cc(O)cc(O)c12 [Hyperoside, hyperoside]
Enquiry: Of the pair a and b , name the member with the lesser recorded CL1. Your choice should be expressed through its label.
Return: a
(a: 46.88 mL/min/kg, b: 81.92 mL/min/kg)

###

measurement.context: GHI-M (GHI 5 mL/kg, i.v.), MI/R rats, plasma, n = 6
measurement.name: K10 (h⁻¹)

molecule	scale.unit	K10
O=c1c(O[C@@H]2O[C@H](CO)[C@@H](O)[C@H](O)[C@H]2O)c(-c2ccc(O)cc2)oc2cc(O)cc(O)c12 [Kaempferol-3-O-glucoside, kaempferol-3-O-glucoside]	h⁻¹	8.042
C[C@@H]1O[C@@H](OC[C@H]2O[C@@H](Oc3c(-c4ccc(O)c(O)c4)oc4cc(O)cc(O)c4c3=O)[C@H](O)[C@@H](O)[C@@H]2O)[C@H](O)[C@H](O)[C@H]1O [Rutin, rutin]	h⁻¹	6.448

a. O=C(/C=C/c1ccc(O)c(O)c1)O[C@@H]1C[C@](O)(C(=O)O)C[C@@H](O)[C@H]1O [Chlorogenic acid, chlorogenic acid]
b. O=c1c(O[C@@H]2O[C@H](CO)[C@H](O)[C@H](O)[C@H]2O)c(-c2ccc(O)c(O)c2)oc2cc(O)cc(O)c12 [Hyperoside, hyperoside]
Enquiry: Between a and b , which one shows the larger K10 value? Your choice should be expressed through its label.
Return: b

###

measurement.context: GHI-H (GHI 10 mL/kg, i.v.), MI/R rats, plasma, n = 6
measurement.name: K12 (h⁻¹)

Some entries whose results are on file:
molecule	scale.unit	K12
O=C(O)/C=C/c1ccc(O)cc1 [p-Coumaric acid, p-coumaric acid]	h⁻¹	9.545
O=C(/C=C/c1ccc(O)c(O)c1)O[C@@H]1C[C@](O)(C(=O)O)C[C@@H](O)[C@H]1O [Chlorogenic acid, chlorogenic acid]	h⁻¹	27.459
O=c1c(O[C@@H]2O[C@H](CO)[C@@H](O)[C@H](O)[C@H]2O)c(-c2ccc(O)cc2)oc2cc(O)cc(O)c12 [Kaempferol-3-O-glucoside, kaempferol-3-O-glucoside]	h⁻¹	17.927

A. C[C@@H]1O[C@@H](OC[C@H]2O[C@@H](Oc3c(-c4ccc(O)c(O)c4)oc4cc(O)cc(O)c4c3=O)[C@H](O)[C@@H](O)[C@@H]2O)[C@H](O)[C@H](O)[C@H]1O [Rutin, rutin]
B. O=c1c(O[C@@H]2O[C@H](CO)[C@H](O)[C@H](O)[C@H]2O)c(-c2ccc(O)c(O)c2)oc2cc(O)cc(O)c12 [Hyperoside, hyperoside]
Enquiry: Of the pair A and B , name the member with the lesser recorded K12. Your choice should be expressed through its label.
Return: B

###

measurement.context: GHI-M (GHI 5 mL/kg, i.v.), MI/R rats, plasma, n = 6
measurement.name: CL1 (mL/min/kg)

compound	CL1 / mL/min/kg
O=C(O)/C=C/c1ccc(O)cc1	46.8
O=c1c(O[C@@H]2O[C@H](CO)[C@H](O)[C@H](O)[C@H]2O)c(-c2ccc(O)c(O)c2)oc2cc(O)cc(O)c12 [Hyperoside, hyperoside]	76.58
O=c1c(O[C@@H]2O[C@H](CO)[C@@H](O)[C@H](O)[C@H]2O)c(-c2ccc(O)cc2)oc2cc(O)cc(O)c12 [Kaempferol-3-O-glucoside, kaempferol-3-O-glucoside]	68.72

P. C[C@@H]1O[C@@H](OC[C@H]2O[C@@H](Oc3c(-c4ccc(O)c(O)c4)oc4cc(O)cc(O)c4c3=O)[C@H](O)[C@@H](O)[C@@H]2O)[C@H](O)[C@H](O)[C@H]1O
Q. O=C(/C=C/c1ccc(O)c(O)c1)O[C@@H]1C[C@](O)(C(=O)O)C[C@@H](O)[C@H]1O
Enquiry: Between P and Q , which one shows the larger CL1 value? Your choice should be expressed through its label.
Return: P

###

measurement.context: GHI-H (GHI 10 mL/kg, i.v.), MI/R rats, plasma, n = 6
measurement.name: CL2 (mL/min/kg)

Some entries whose results are on file:
compound	measurement.name	scale.unit	measured.result
O=c1c(O[C@@H]2O[C@H](CO)[C@H](O)[C@H](O)[C@H]2O)c(-c2ccc(O)c(O)c2)oc2cc(O)cc(O)c12 [Hyperoside, hyperoside]	CL2	mL/min/kg	120.9
O=C(O)/C=C/c1ccc(O)cc1	CL2	mL/min/kg	111
O=c1c(O[C@@H]2O[C@H](CO)[C@@H](O)[C@H](O)[C@H]2O)c(-c2ccc(O)cc2)oc2cc(O)cc(O)c12 [Kaempferol-3-O-glucoside, kaempferol-3-O-glucoside]	CL2	mL/min/kg	141.2

1. O=C(/C=C/c1ccc(O)c(O)c1)O[C@@H]1C[C@](O)(C(=O)O)C[C@@H](O)[C@H]1O
2. C[C@@H]1O[C@@H](OC[C@H]2O[C@@H](Oc3c(-c4ccc(O)c(O)c4)oc4cc(O)cc(O)c4c3=O)[C@H](O)[C@@H](O)[C@@H]2O)[C@H](O)[C@H](O)[C@H]1O
Enquiry: Of the pair 1 and 2 , name the member with the lesser recorded CL2. Your choice should be expressed through its label.
Return: 2
(2: 111.9 mL/min/kg, 1: 173.38 mL/min/kg)

###

measurement.context: GHI-M (GHI 5 mL/kg, i.v.), MI/R rats, plasma, n = 6
measurement.name: K21 (h⁻¹)

Some entries whose results are on file:
compound	scale.unit	K21
C[C@@H]1O[C@@H](OC[C@H]2O[C@@H](Oc3c(-c4ccc(O)c(O)c4)oc4cc(O)cc(O)c4c3=O)[C@H](O)[C@@H](O)[C@@H]2O)[C@H](O)[C@H](O)[C@H]1O [Rutin, rutin]	h⁻¹	4.751
O=c1c(O[C@@H]2O[C@H](CO)[C@@H](O)[C@H](O)[C@H]2O)c(-c2ccc(O)cc2)oc2cc(O)cc(O)c12 [Kaempferol-3-O-glucoside, kaempferol-3-O-glucoside]	h⁻¹	3.087

A. O=C(/C=C/c1ccc(O)c(O)c1)O[C@@H]1C[C@](O)(C(=O)O)C[C@@H](O)[C@H]1O [Chlorogenic acid, chlorogenic acid]
B. O=C(O)/C=C/c1ccc(O)cc1 [p-Coumaric acid, p-coumaric acid]
Enquiry: Of the pair A and B , name the member with the lesser recorded K21. Your choice should be expressed through its label.
Return: A
(A: 4.84 h⁻¹, B: 10.302 h⁻¹)

###

measurement.context: GHI-M (GHI 5 mL/kg, i.v.), MI/R rats, plasma, n = 6
measurement.name: t1/2α (min)

molecule	measured.result
C[C@@H]1O[C@@H](OC[C@H]2O[C@@H](Oc3c(-c4ccc(O)c(O)c4)oc4cc(O)cc(O)c4c3=O)[C@H](O)[C@@H](O)[C@@H]2O)[C@H](O)[C@H](O)[C@H]1O	2.1
O=C(/C=C/c1ccc(O)c(O)c1)O[C@@H]1C[C@](O)(C(=O)O)C[C@@H](O)[C@H]1O	1.86
O=c1c(O[C@@H]2O[C@H](CO)[C@@H](O)[C@H](O)[C@H]2O)c(-c2ccc(O)cc2)oc2cc(O)cc(O)c12 [Kaempferol-3-O-glucoside, kaempferol-3-O-glucoside]	2.7

I. O=C(O)/C=C/c1ccc(O)cc1
II. O=c1c(O[C@@H]2O[C@H](CO)[C@H](O)[C@H](O)[C@H]2O)c(-c2ccc(O)c(O)c2)oc2cc(O)cc(O)c12 [Hyperoside, hyperoside]
Enquiry: Of the pair I and II , name the member with the lesser recorded t1/2α. Your choice should be expressed through its label.
Return: II
(II: 1.38 min, I: 2.22 min)
